target: AR (Homo sapiens, UniProt P10275); construct: Degradation of AR; Cellular potency; host or cells: VCaP cells; assay: Degradation of AR in VCaP cells; assay type: cell-based; settings: VCaP cells
Catalogue of compounds with associated DC50

As a guide, the following entries are already answered.
>  <COMPOUND>
C[C@H]1CC2(CCN(c3ccc(OC4CCN(C5CN(c6ccc7c(c6)C(=O)N(C6CCC(=O)NC6=O)C7=O)C5)CC4)cc3)CC2)CN1c1ccc(C#N)c(Cl)c1 (stereo partly drawn) [compound 57]

>  <DC50>
< 1 nM

$$$$
>  <COMPOUND>
C[C@H]1CC2(CCN(c3ccc(S(=O)(=O)N4CCN(C5CN(c6ccc7c(c6)C(=O)N(C6CCC(=O)NC6=O)C7=O)C5)CC4)cc3)CC2)CN1c1ccc(C#N)c(Cl)c1 (stereo partly drawn) [compound 2]

>  <DC50>
< 1 nM

$$$$

Read the next record carefully.
Q: For C[C@H]1CC2(CCN(c3ccc(CN4CCN(C5CCN(c6ccc7c(c6)C(=O)N(C6CCC(=O)NC6=O)C7=O)CC5)CC4)c(F)c3)CC2)CN1c1ccc(C#N)c(Cl)c1 (stereo partly drawn) [compound 10] , what is its reported DC50?
Result: < 10 nM

====

Biological target: AR (Homo sapiens)
Construct: Degradation of AR; Cellular potency; host or cells: VCaP cells
Sequence (P10275 1-920): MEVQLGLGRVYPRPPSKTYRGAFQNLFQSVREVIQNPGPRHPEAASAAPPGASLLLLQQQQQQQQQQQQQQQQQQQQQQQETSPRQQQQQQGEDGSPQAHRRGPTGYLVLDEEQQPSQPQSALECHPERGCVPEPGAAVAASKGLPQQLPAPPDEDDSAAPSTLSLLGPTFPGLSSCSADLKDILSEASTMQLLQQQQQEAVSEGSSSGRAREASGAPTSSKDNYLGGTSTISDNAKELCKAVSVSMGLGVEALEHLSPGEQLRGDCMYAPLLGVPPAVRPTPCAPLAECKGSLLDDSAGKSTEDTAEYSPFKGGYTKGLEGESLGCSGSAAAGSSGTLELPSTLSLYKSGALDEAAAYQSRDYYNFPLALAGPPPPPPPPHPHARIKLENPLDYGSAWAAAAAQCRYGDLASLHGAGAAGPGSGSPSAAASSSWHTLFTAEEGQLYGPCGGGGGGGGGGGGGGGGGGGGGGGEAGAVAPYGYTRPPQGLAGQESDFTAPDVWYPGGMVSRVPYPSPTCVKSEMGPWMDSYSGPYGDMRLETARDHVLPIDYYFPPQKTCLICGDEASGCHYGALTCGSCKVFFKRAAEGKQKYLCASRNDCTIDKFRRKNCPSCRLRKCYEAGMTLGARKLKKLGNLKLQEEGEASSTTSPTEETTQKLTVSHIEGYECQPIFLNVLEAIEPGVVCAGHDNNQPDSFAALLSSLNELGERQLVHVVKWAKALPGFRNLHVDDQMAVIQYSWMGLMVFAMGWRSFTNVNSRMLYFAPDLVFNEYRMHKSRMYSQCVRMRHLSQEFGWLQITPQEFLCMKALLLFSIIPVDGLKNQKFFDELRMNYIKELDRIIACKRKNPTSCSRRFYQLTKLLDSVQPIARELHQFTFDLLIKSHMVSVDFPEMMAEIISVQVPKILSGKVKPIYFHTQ
Test: Degradation of AR in VCaP cells
Format: cell-based
Conditions: VCaP, VCaP cells
METRIC: Dmax

>  <COMPOUND>
C[C@H]1CC2(CCN(c3ccc(N4CCN(C5CN(c6ccc7c(c6)C(=O)N(C6CCC(=O)NC6=O)C7=O)C5)CC4)cc3F)CC2)CN1c1ccc(C#N)c(Cl)c1 (stereo partly drawn)

>  <Dmax>
> 90%

$$$$
>  <COMPOUND>
C[C@H]1CC2(CCN(c3ccc(C4CCN(CC5CN(c6ccc7c(c6)C(=O)N(C6CCC(=O)NC6=O)C7=O)C5)CC4)nc3)CC2)CN1c1ccc(C#N)c(Cl)c1 (stereo partly drawn)

>  <Dmax>
> 90%

$$$$

Read the next record carefully.
Q: For C[C@H]1CC2(CCN(c3ccc(N4CCC(CN5Cc6cc7c(cc6C5)C(=O)N(C5CCC(=O)NC5=O)C7=O)CC4)nc3)CC2)CN1c1ccc(C#N)c(Cl)c1 (stereo partly drawn) , what is its reported Dmax?
Result: > 90%

====

Catalogue of compounds with associated Dmax
target: AR (Homo sapiens); construct: Degradation of AR; Cellular potency; host or cells: VCaP cells; assay: Degradation of AR in VCaP cells; format: cell-based; details: VCaP, VCaP cells

As a guide, the following entries are already answered.
>  <COMPOUND>
C[C@H]1CC2(CCN(c3ccc(CN4CCN(C5CN(c6ccc7c(c6)C(=O)N(C6CCC(=O)NC6=O)C7=O)C5)CC4)cc3)CC2)CN1c1ccc(C#N)c(Cl)c1 (stereo partly drawn)

>  <Dmax>
> 90%

$$$$
>  <COMPOUND>
C[C@H]1CC2(CCN(c3ccc(OC4CN(C5CN(c6ccc7c(c6)C(=O)N(C6CCC(=O)NC6=O)C7=O)C5)C4)nn3)CC2)CN1c1ccc(C#N)c(Cl)c1 (stereo partly drawn)

>  <Dmax>
50 to 70%

$$$$
>  <COMPOUND>
C[C@H]1CC2(CCN(c3ccc(N4CC(N(C)C5CN(c6ccc7c(c6)C(=O)N(C6CCC(=O)NC6=O)C7=O)C5)C4)cc3)CC2)CN1c1ccc(C#N)c(Cl)c1 (stereo partly drawn)

>  <Dmax>
70 to 90%

$$$$
>  <COMPOUND>
C[C@H]1CC2(CCN(c3ncc(C(=O)N4CCN(C5CN(c6ccc7c(c6)C(=O)N(C6CCC(=O)NC6=O)C7=O)C5)CC4)s3)CC2)CN1c1ccc(C#N)c(Cl)c1 (stereo partly drawn)

>  <Dmax>
> 90%

$$$$
>  <COMPOUND>
C[C@H]1CC2(CCN(c3cnc(N4CCN(CC5CCN(c6ccc7c(c6)C(=O)N(C6CCC(=O)NC6=O)C7=O)CC5)CC4)nc3)CC2)CN1c1ccc(C#N)c(Cl)c1 (stereo partly drawn)

>  <Dmax>
> 90%

$$$$
>  <COMPOUND>
C[C@H]1CC2(CCN(c3ccc(S(=O)(=O)N4CCN(C5CCN(c6ccc7c(c6)C(=O)N(C6CCC(=O)NC6=O)C7=O)CC5)CC4)cc3)CC2)CN1c1ccc(C#N)c(Cl)c1 (stereo partly drawn)

>  <Dmax>
> 90%

$$$$

Q: Please state recorded Dmax (tested on AR (Homo sapiens)) of C[C@H]1CC2(CCN(c3ccc(OC4CN(C5CN(c6ccc7c(c6)C(=O)N(C6CCC(=O)NC6=O)C7=O)C5)C4)nc3)CC2)CN1c1ccc(C#N)c(Cl)c1 (stereo partly drawn)
Result: 50 to 70%

Q: Please state recorded Dmax (tested on AR (Homo sapiens)) of C=C1CCC(N2C(=O)c3ccc(N4CCC(C5CCN(Cc6ccc(N7CCC8(CC7)C[C@H](C)N(c7ccc(C#N)c(Cl)c7)C8)cc6)CC5)CC4)cc3C2=O)C(=O)N1 (stereo partly drawn)
Result: 70 to 90%

Q: Please state recorded Dmax (tested on AR (Homo sapiens)) of C[C@H]1CC2(CCN(c3ncc(C(=O)N4CCC(N5Cc6cc7c(cc6C5)C(=O)N(C5CCC(=O)NC5=O)C7=O)CC4)s3)CC2)CN1c1ccc(C#N)c(Cl)c1 (stereo partly drawn)
Result: 70 to 90%

Q: Please state recorded Dmax (tested on AR (Homo sapiens)) of C[C@H]1CC2(CCN(c3ccc(OC4CCN(C5CN(c6cc7c(cc6F)C(=O)N(C6CCC(=O)NC6=O)C7=O)C5)CC4)cc3)CC2)CN1c1ccc(C#N)c(Cl)c1 (stereo partly drawn)
Result: > 90%

Q: Please state recorded Dmax (tested on AR (Homo sapiens)) of C=C1CCC(N2C(=O)c3ccc(N4CCC(CN5CCN(c6ccc(N7CCC8(CC7)C[C@H](C)N(c7ccc(C#N)c(Cl)c7)C8)c(F)c6)CC5)CC4)cc3C2=O)C(=O)N1 (stereo partly drawn)
Result: > 90%

Q: Please state recorded Dmax (tested on AR (Homo sapiens)) of C[C@H]1CC2(CCN(c3ccc(N4CCC(N(C)C5CN(c6ccc7c(c6)C(=O)N(C6CCC(=O)NC6=O)C7=O)C5)CC4)nn3)CC2)CN1c1ccc(C#N)c(Cl)c1 (stereo partly drawn)
Result: > 90%

Q: Please state recorded Dmax (tested on AR (Homo sapiens)) of C[C@H]1CC2(CCN(c3ccc(OC4CN(C5CN(c6ccc7c(c6)C(=O)N(C6CCC(=O)NC6=O)C7=O)C5)C4)cn3)CC2)CN1c1ccc(C#N)c(Cl)c1 (stereo partly drawn)
Result: > 90%

Q: Please state recorded Dmax (tested on AR (Homo sapiens)) of C[C@H]1CC2(CCN(c3cnc(N4CCN(CC5CN(c6ccc7c(c6)C(=O)N(C6CCC(=O)NC6=O)C7=O)C5)CC4)cn3)CC2)CN1c1ccc(C#N)c(Cl)c1 (stereo partly drawn)
Result: > 90%

Q: Please state recorded Dmax (tested on AR (Homo sapiens)) of C[C@H]1CC2(CCN(c3ccc(C4CCN(C5CN(c6ccc7c(c6)C(=O)N(C6CCC(=O)NC6=O)C7=O)C5)CC4)cc3)CC2)CN1c1ccc(C#N)c(Cl)c1 (stereo partly drawn)
Result: 70 to 90%

Q: Please state recorded Dmax (tested on AR (Homo sapiens)) of C[C@H]1CC2(CCN(c3ccc(OC4CN(C5CCN(c6ccc7c(c6)C(=O)N(C6CCC(=O)NC6=O)C7=O)CC5)C4)nn3)CC2)CN1c1ccc(C#N)c(Cl)c1 (stereo partly drawn)
Result: 50 to 70%

Q: Please state recorded Dmax (tested on AR (Homo sapiens)) of C[C@H]1CC2(CCN(c3ccc(CN4CCN(C5CN(c6ccc7c(c6)C(=O)N(C6CCC(=O)NC6=O)C7=O)C5)CC4)c(F)c3)CC2)CN1c1ccc(C#N)c(Cl)c1 (stereo partly drawn)
Result: 70 to 90%

Q: Please state recorded Dmax (tested on AR (Homo sapiens)) of C[C@H]1CC2(CCN(c3ccc(CC4CCN(CC5CN(c6ccc7c(c6)C(=O)N(C6CCC(=O)NC6=O)C7=O)C5)CC4)cc3)CC2)CN1c1ccc(C#N)c(Cl)c1 (stereo partly drawn)
Result: > 90%

Q: Please state recorded Dmax (tested on AR (Homo sapiens)) of C[C@H]1CC2(CCN(c3ccc(CC4CCN(CC5CCN(c6ccc7c(c6)C(=O)N(C6CCC(=O)NC6=O)C7=O)CC5)CC4)cc3)CC2)CN1c1ccc(C#N)c(Cl)c1 (stereo partly drawn)
Result: > 90%

Q: Please state recorded Dmax (tested on AR (Homo sapiens)) of C[C@H]1CC2(CCN(c3ccc(CN4CCC(C5CN(c6ccc7c(c6)C(=O)N(C6CCC(=O)NC6=O)C7=O)C5)CC4)c(F)c3)CC2)CN1c1ccc(C#N)c(Cl)c1 (stereo partly drawn)
Result: > 90%

Q: Please state recorded Dmax (tested on AR (Homo sapiens)) of C[C@H]1CC2(CCN(c3ccc(OC4CN(C5CCN(c6ccc7c(c6)C(=O)N(C6CCC(=O)NC6=O)C7=O)CC5)C4)nc3)CC2)CN1c1ccc(C#N)c(Cl)c1 (stereo partly drawn)
Result: 50 to 70%

src = patent US20240190874A1
